- measurementTarget: T1, SXM (GST-SXL Drosophila) (Drosophila melanogaster, UniProt P19339 1-354)
- T1 sequence: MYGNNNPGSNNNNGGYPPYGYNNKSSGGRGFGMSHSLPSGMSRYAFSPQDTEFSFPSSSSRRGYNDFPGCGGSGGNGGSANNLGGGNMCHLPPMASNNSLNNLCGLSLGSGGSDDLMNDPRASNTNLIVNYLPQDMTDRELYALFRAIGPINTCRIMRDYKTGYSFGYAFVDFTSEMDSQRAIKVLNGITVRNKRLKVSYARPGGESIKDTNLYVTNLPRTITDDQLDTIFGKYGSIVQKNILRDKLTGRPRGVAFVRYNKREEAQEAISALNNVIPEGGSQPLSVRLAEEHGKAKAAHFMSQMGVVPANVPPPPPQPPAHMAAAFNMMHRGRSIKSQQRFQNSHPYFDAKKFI
- protocol: EMSA; apparent Kd, Hill fit; error 95% CI; 20 mM Hepes pH 8.0, 0.1 M KCl, 0.5 mM EDTA, 1 mM DTT, 0.05% NP40, 20% glycerol, 3 µg yeast tRNA; 5 min on ice, then 10 min at room temperature with RNA; 5% native PAGE, 0.25x TBE
- appliedConditions: protein: recombinant; tags: GST; label: fluorescein (RNA labelling mix)
pKd: −log10 of the molar value.
property: pKd

1. ACAUAUUUUUUUUCACAGC (ssRNA) [single poly(U) SXL site] = 3.82
